Let's look at some compounds and their measured growth AUC.
system: Coprococcus comes; assay: growth AUC relative to DMSO control (median of replicates) (fraction); higher = more growth (less inhibition), active = hit call of the paper; settings: 20 µM; 24 h
property: growth AUC

>>> df
                                    compound    property    val
 0              CCNc1nc(Cl)nc(NC(C)(C)C#N)n1  growth AUC  0.988
 1           Cc1cccc(C)c1N(Cn1cccn1)C(=O)CCl  growth AUC  0.992
 2      CCCCCCCCSC(=O)Oc1cc(Cl)nnc1-c1ccccc1  growth AUC   0.98
 3  CSC1=N[C@@](C)(c2ccccc2)C(=O)N1Nc1ccccc1  growth AUC  0.988
 4  CC(C)=NOCCOC(=O)[C@@H](C)Oc1ccc(Oc2cnc3cc(Cl)ccc3n2)cc1  growth AUC   0.94
 5  CC(C)(O)C(Cl)(Cl)Cl.CC(C)(O)C(Cl)(Cl)Cl.O  growth AUC   1.04
 6             COP(=S)(OC)Oc1c(Cl)cc(C)cc1Cl  growth AUC   0.99
 7                  Cc1cc(Cl)ccc1N=CN(C)C.Cl  growth AUC   1.09
 8                CCNc1nc(NC(C)(C)C)nc(SC)n1  growth AUC  0.969
 9              CON(C)C(=O)Nc1ccc(Br)c(Cl)c1  growth AUC   1.03
10            COP(=S)(OC)Oc1nc(Cl)c(Cl)cc1Cl  growth AUC  0.978
11          CCOP(=S)(OCC)Oc1nc(Cl)n(C(C)C)n1  growth AUC  0.986
12  COP(=S)(OC)Oc1ccc(Sc2ccc(OP(=S)(OC)OC)cc2)cc1  growth AUC   1.03
13     O=C(Nc1ccccc1)N(Cc1ccc(Cl)cc1)C1CCCC1  growth AUC   0.94
14                       Oc1c(Cl)ccc(Cl)c1Cl  growth AUC   0.98
15                        O=C(O)c1ccc(Cl)nc1  growth AUC  0.946
16  CC(C)[C@@H](Nc1ccc(C(F)(F)F)cc1Cl)C(=O)OC(C#N)c1cccc(Oc2ccccc2)c1 (stereo partly drawn)  growth AUC  0.988
17  CCOc1cc(C(C)(C)C)ccc1C1COC(c2c(F)cccc2F)=N1 (stereo not drawn)  growth AUC  0.996
18  COCc1c(F)c(F)c(COC(=O)[C@@H]2[C@@H](C=C(Cl)Cl)C2(C)C)c(F)c1F  growth AUC  0.981
19  O=c1oc2ccccc2c(O)c1C1CC(c2ccc(OCc3ccc(C(F)(F)F)cc3)cc2)Cc2ccccc21 (mixture of isomers)  growth AUC  0.858
20  CCCCC(C#N)(Cn1cncn1)c1ccc(Cl)cc1 (stereo not drawn)  growth AUC   1.02
21      CCOP(=S)(OCC)Oc1ccc([N+](=O)[O-])cc1  growth AUC  0.997
22  CCNS(=O)(=O)C(F)(F)C(F)(F)C(F)(F)C(F)(F)C(F)(F)C(F)(F)C(F)(F)C(F)(F)F  growth AUC  0.995
23               CCOP(=S)(OCC)OP(=S)(OCC)OCC  growth AUC  0.985
24         CCCCNC(=O)n1c(NC(=O)OC)nc2ccccc21  growth AUC   1.04
25  CCOCn1c(-c2ccc(Cl)cc2)c(C#N)c(Br)c1C(F)(F)F  growth AUC   1.02
26  COC(=O)c1ccccc1CS(=O)(=O)NC(=O)Nc1nc(OC)cc(OC)n1  growth AUC   1.02
27    COP(=S)(OC)SCC(=O)N(c1ccc(Cl)cc1)C(C)C  growth AUC   1.04
28  O=C(O)C(F)(F)C(F)(F)C(F)(F)C(F)(F)C(F)(F)C(F)(F)F  growth AUC      1
29                    CCOP(=S)(OCC)Oc1cnccn1  growth AUC  0.984
30                           Oc1cccc2cccnc12  growth AUC  0.928
31  CCC1(C(=O)NC(C)c2ccc(Cl)cc2)C(C)C1(Cl)Cl (stereo not drawn)  growth AUC   0.97
32        O=P(Oc1ccccc1)(Oc1ccccc1)Oc1ccccc1  growth AUC  0.937
